# System: HRV type 1A
# RUN_DESCRIPTION: Inhibition of viral cytopathic effect (CPE), HRV type 1A in MRC-5 cells
# Assay type: cell-based, human rhinovirus
# ASSAY_CONTEXT: HRV type 1A, MRC-5 cells; concentration yielding 50% antiviral efficacy
MEASURE: Activity on Rhinovirus Type 1A EC50

CHEMICAL_SMILES | Activity on Rhinovirus Type 1A EC50
Cc1cc(-c2ccccc2)cc(C)c1OCCCc1cc(COCCOCCOCCOCc2cc(CCCOc3c(C)cc(-c4ccccc4)cc3C)on2)no1 | 0.32 µg/mL
Cc1cc(-c2ccccc2)cc(C)c1OCCCc1cc(COCCOCCOCCOCCNC(=O)Nc2ccc(Cc3ccc(NC(=O)NCCOCCOCCOCCOCc4cc(CCCOc5c(C)cc(-c6ccccc6)cc5C)on4)cc3)cc2)no1 | 3.85 µg/mL
Cc1cc(-c2ccccc2)cc(C)c1OCCCc1cc(COCCOCCOCCOCCOCCOCCO)no1 | >50 µg/mL

Recorded Activity on Rhinovirus Type 1A EC50 (molecule `Cc1cc(-c2noc(C(F)(F)F)n2)cc(C)c1OCCCc1cc(COCCOCCOCCO)no1` ): 0.21 µg/mL

Recorded Activity on Rhinovirus Type 1A EC50 (molecule `Cc1cc(-c2noc(C(F)(F)F)n2)cc(C)c1OCCCc1cc(COCCOCCOCc2cc(CCCOc3c(C)cc(-c4noc(C(F)(F)F)n4)cc3C)on2)no1` ): 0.06 µg/mL

Recorded Activity on Rhinovirus Type 1A EC50 (molecule `Cc1cc(-c2noc(C(F)(F)F)n2)cc(C)c1OCCCc1cc(COCCOCCOCCOCCOCc2ccc(COCCOCCOCCOCCOCc3cc(CCCOc4c(C)cc(-c5noc(C(F)(F)F)n5)cc4C)on3)cc2)no1` ): 1.8 µg/mL

Recorded Activity on Rhinovirus Type 1A EC50 (molecule `Cc1cc(-c2ccccc2)cc(C)c1OCCCc1cc(COCCOCCOCCOCCOCCOCCOCc2cc(CCCOc3c(C)cc(-c4ccccc4)cc3C)on2)no1` ): >50 µg/mL

Recorded Activity on Rhinovirus Type 1A EC50 (molecule `Cc1cc(-c2ccccc2)cc(C)c1OCCCc1cc(COCCOCCOCCO)no1` ): 0.59 µg/mL
